- assayed.target: VEGFR2 (Homo sapiens (Human))
- Sequence (P35968 20-1356): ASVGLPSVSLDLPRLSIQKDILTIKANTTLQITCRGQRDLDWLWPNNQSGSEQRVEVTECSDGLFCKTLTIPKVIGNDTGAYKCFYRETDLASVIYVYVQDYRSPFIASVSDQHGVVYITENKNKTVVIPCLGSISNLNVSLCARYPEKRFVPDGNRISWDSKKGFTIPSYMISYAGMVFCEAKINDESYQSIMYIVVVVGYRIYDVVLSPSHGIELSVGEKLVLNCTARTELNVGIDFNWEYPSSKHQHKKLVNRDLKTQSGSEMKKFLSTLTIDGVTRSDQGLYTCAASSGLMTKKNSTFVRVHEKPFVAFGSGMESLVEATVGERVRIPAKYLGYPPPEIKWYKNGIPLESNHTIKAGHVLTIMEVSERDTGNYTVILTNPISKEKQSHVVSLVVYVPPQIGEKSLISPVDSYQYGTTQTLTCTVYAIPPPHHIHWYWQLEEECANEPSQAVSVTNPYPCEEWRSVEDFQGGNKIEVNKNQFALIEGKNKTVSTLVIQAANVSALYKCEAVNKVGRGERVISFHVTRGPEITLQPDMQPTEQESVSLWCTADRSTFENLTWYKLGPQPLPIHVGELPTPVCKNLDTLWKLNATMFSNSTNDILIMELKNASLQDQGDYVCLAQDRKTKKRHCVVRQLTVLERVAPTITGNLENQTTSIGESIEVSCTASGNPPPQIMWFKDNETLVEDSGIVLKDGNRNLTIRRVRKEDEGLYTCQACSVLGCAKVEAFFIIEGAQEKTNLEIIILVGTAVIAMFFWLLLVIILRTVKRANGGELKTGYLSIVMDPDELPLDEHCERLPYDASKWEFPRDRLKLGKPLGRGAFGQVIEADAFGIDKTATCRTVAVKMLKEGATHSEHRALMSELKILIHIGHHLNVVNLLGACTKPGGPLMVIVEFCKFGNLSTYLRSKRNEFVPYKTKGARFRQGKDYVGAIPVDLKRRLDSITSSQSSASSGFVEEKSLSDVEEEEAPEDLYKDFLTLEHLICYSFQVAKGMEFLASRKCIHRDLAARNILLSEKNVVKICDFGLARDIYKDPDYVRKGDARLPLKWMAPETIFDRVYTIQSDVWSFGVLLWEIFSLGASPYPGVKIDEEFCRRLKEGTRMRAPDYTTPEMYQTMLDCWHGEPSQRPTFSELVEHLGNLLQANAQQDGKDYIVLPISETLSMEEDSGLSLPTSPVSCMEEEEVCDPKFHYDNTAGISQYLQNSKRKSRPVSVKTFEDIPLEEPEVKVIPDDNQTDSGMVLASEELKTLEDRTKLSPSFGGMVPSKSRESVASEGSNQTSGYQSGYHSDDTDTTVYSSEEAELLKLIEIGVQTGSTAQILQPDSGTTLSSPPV
reported.endpoint: Kd (nM)
Respond numerically; units are nM and should not be typed.

Hi! What's the reported Kd for Cc1[nH]c(/C=C2\C(=O)Nc3ccc(F)cc32)c(C)c1C(=O)NCCNC(=O)CCOCCOCCOCCN=[N+]=[N-] on VEGFR2 (Homo sapiens (Human))?
1
